Assay: Half life in Sprague-Dawley rat at 1 mg/kg, iv
Type: ADME, organism-based
Parameters: dose 1 mg/kg, route intravenous
Conditions: in vivo
Property label: half-life (h)
Unit h implied. Number only.

Exam item: Please give measured half-life of the following entry: `CC(C)[C@]1(C(=O)NCc2cc(F)cc(C(F)(F)F)c2)CC[C@@H](N2CC[C@]3(C=Cc4ccccc43)[C@@H](C)C2)C1`
Marked response: 2.5

###

Molecular target: C-C chemokine receptor type 2 (Mus musculus)
Sequence (P51683 whole entry): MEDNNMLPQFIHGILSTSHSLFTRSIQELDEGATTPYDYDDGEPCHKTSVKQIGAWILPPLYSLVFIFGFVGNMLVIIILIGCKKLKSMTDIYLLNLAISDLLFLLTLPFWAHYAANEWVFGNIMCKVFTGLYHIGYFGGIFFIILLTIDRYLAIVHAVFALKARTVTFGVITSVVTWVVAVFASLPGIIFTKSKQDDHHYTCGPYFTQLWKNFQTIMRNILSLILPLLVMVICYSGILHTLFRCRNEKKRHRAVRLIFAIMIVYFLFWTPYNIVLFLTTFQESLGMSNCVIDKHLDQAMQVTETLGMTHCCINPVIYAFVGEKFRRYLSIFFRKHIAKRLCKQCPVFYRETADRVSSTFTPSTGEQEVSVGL
Assay: Displacement of [125I]MCP1 from mouse CCR2 receptor expressed in CHO cells
Kindly supply the reported IC50 values for the records listed here.
Unit nM implied. Number only.

Exam item: Please give measured IC50 of the following entry: C[C@H]1CN(C2CCC(CC3CC3)(C(=O)NCc3cc(C(F)(F)F)cc(C(F)(F)F)c3)C2)CC[C@]12C=Cc1ccccc12 (some centres not stated)
Marked response: 63.5

Exam item: Please give measured IC50 of the following entry: CCCC1(C(=O)NCc2cc(F)cc(C(F)(F)F)c2)CCC(N2CC[C@]3(C=Cc4ccccc43)[C@@H](C)C2)C1 (some centres not stated)
Marked response: 17

Exam item: Please give measured IC50 of the following entry: `CCC[C@]1(C(=O)NCc2cc(C(F)(F)F)cc(C(F)(F)F)c2)CC[C@@H](N2CC[C@]3(C=Cc4ccccc43)[C@@H](C)C2)C1`
Marked response: 44.3

Exam item: Please give measured IC50 of the following entry: `C[C@H]1CN([C@@H]2CC[C@](C)(C(=O)NCc3cc(C(F)(F)F)cc(C(F)(F)F)c3)C2)CC[C@]12C=Cc1ccccc12`
Marked response: 126

Exam item: Please give measured IC50 of the following entry: `CC(C)C[C@]1(C(=O)NCc2cc(F)cc(C(F)(F)F)c2)CC[C@@H](N2CC[C@]3(C=Cc4ccccc43)[C@@H](C)C2)C1`
Marked response: 7.5

Exam item: Please give measured IC50 of the following entry: C[C@H]1CN(C2CCC(CC3CC3)(C(=O)NCc3cc(F)cc(C(F)(F)F)c3)C2)CC[C@]12C=Cc1ccccc12 (some centres not stated)
Marked response: 15

Exam item: Please give measured IC50 of the following entry: CCC1(C(=O)NCc2cc(C(F)(F)F)cc(C(F)(F)F)c2)CCC(N2CC[C@]3(C=Cc4ccccc43)[C@@H](C)C2)C1 (some centres not stated)
Marked response: 17.5

Exam item: Please give measured IC50 of the following entry: `CC(C)[C@]1(C(=O)NCc2cc(C(F)(F)F)cc(C(F)(F)F)c2)CC[C@@H](N2CC[C@]3(C=Cc4ccccc43)[C@@H](C)C2)C1`
Marked response: 15

Exam item: Please give measured IC50 of the following entry: `CS[C@]1(C(=O)NCc2cc(F)cc(C(F)(F)F)c2)CC[C@@H](N2CC[C@]3(C=Cc4ccccc43)[C@@H](C)C2)C1`
Marked response: 193

Exam item: Please give measured IC50 of the following entry: C[C@H]1CN(C2CCC(CC3CCC3)(C(=O)NCc3cc(F)cc(C(F)(F)F)c3)C2)CC[C@]12C=Cc1ccccc12 (single isomer, unassigned; diastereomer 2)
Marked response: 147

Exam item: Please give measured IC50 of the following entry: `C[C@H]1CN([C@@H]2CC[C@@](C(=O)NCc3cc(F)cc(C(F)(F)F)c3)(C3CC3)C2)CC[C@]12C=Cc1ccccc12`
Marked response: 8

Exam item: Please give measured IC50 of the following entry: C[C@H]1CN(C2CCC(C(=O)NCc3cc(C(F)(F)F)cc(C(F)(F)F)c3)(C3CC3)C2)CC[C@]12C=Cc1ccccc12 (some centres not stated)
Marked response: 45

###

Molecular target: C-C chemokine receptor type 2 (Homo sapiens, UniProt P41597, I40L)
Sequence (P41597 whole entry I40L): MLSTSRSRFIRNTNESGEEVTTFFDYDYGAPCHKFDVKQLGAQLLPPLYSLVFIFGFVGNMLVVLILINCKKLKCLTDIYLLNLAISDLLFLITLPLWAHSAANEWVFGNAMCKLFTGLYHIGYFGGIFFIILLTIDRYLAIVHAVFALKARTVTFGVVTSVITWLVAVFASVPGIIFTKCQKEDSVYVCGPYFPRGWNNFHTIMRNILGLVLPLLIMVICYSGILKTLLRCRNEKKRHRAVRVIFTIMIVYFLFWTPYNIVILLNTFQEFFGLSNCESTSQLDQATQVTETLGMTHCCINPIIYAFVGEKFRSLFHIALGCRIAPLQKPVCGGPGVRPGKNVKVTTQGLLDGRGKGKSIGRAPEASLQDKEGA
Assay: Displacement of [125I]MCP1 from human CCR2 I40L mutant expressed in CHO cells
Property label: IC50 (nM)
Unit nM implied. Number only.

Exam item: Provide C-C chemokine receptor type 2 (Homo sapiens, UniProt P41597, I40L) IC50 reading for `CC(C)C[C@]1(C(=O)NCc2cc(F)cc(C(F)(F)F)c2)CC[C@@H](N2CC[C@]3(C=Cc4ccccc43)[C@@H](C)C2)C1` .
Marked response: 3.9

Exam item: Provide C-C chemokine receptor type 2 (Homo sapiens, UniProt P41597, I40L) IC50 reading for `C[C@H]1CN([C@@H]2CC[C@](C)(C(=O)NCc3cc(C(F)(F)F)cc(C(F)(F)F)c3)C2)CC[C@]12C=Cc1ccccc12` .
Marked response: 9

Exam item: Provide C-C chemokine receptor type 2 (Homo sapiens, UniProt P41597, I40L) IC50 reading for C[C@H]1CN(C2CCC(CC3CCC3)(C(=O)NCc3cc(F)cc(C(F)(F)F)c3)C2)CC[C@]12C=Cc1ccccc12 (single isomer, unassigned; diastereomer 2) .
Marked response: 32

###

Target: C-C chemokine receptor type 2 (Homo sapiens, UniProt P41597, I40L)
Assay: Displacement of [125I]MCP1 from human CCR2 I40L mutant expressed in CHO cells
Kindly supply the reported IC50 values for the records listed here.

Exam item: Please give measured IC50 of the following entry: `CSC[C@]1(C(=O)NCc2cc(C(F)(F)F)cc(C(F)(F)F)c2)CC[C@@H](N2CC[C@]3(C=Cc4ccccc43)[C@@H](C)C2)C1`
Marked response: 13 nM

Exam item: Please give measured IC50 of the following entry: COCC1(C(=O)NCc2cc(F)cc(C(F)(F)F)c2)CCC(N2CC[C@]3(C=Cc4ccccc43)[C@@H](C)C2)C1 (some centres undefined)
Marked response: 8.5 nM

Exam item: Please give measured IC50 of the following entry: CCCC1(C(=O)NCc2cc(F)cc(C(F)(F)F)c2)CCC(N2CC[C@]3(C=Cc4ccccc43)[C@@H](C)C2)C1 (some centres undefined)
Marked response: 5 nM

Exam item: Please give measured IC50 of the following entry: `C[C@H]1CN([C@@H]2CC[C@](CC3CCC3)(C(=O)NCc3cc(C(F)(F)F)cc(C(F)(F)F)c3)C2)CC[C@]12C=Cc1ccccc12`
Marked response: 19 nM

###

Assay: Bioavailability in Sprague-Dawley rat at 3 mg/kg, po
Assay type: ADME, organism-based
Settings: in vivo
Property label: bioavailability (%)
Unit % implied. Number only.

Exam item: Please give measured bioavailability of the following entry: `CC(C)[C@]1(C(=O)NCc2cc(F)cc(C(F)(F)F)c2)CC[C@@H](N2CC[C@]3(C=Cc4ccccc43)[C@@H](C)C2)C1`
Marked response: 32

###

Assay: Half life in Sprague-Dawley rat at 3 mg/kg, po
Type: ADME, organism-based
Parameters: dose 3 mg/kg, route oral
Conditions: in vivo
Property label: half-life (h)
Unit h implied. Number only.

Exam item: Please give measured half-life of the following entry: `CC(C)[C@]1(C(=O)NCc2cc(F)cc(C(F)(F)F)c2)CC[C@@H](N2CC[C@]3(C=Cc4ccccc43)[C@@H](C)C2)C1`
Marked response: 2

###

Target: C-C chemokine receptor type 2 (Homo sapiens, UniProt P41597, I40L)
Assay: Displacement of [125I]MCP1 from human CCR2 I40L mutant expressed in CHO cells
Property label: pIC50
A value of pIC50 is the negative decimal logarithm of a concentration given in moles per litre.

Exam item: Please give measured pIC50 of the following entry: `CS[C@]1(C(=O)NCc2cc(C(F)(F)F)cc(C(F)(F)F)c2)CC[C@@H](N2CC[C@]3(C=Cc4ccccc43)[C@@H](C)C2)C1`
Marked response: 7.55

Exam item: Please give measured pIC50 of the following entry: `CC(C)[C@]1(C(=O)NCc2cc(C(F)(F)F)cc(C(F)(F)F)c2)CC[C@@H](N2CC[C@]3(C=Cc4ccccc43)[C@@H](C)C2)C1`
Marked response: 8.12

Exam item: Please give measured pIC50 of the following entry: `C[C@H]1CN([C@@H]2CC[C@](C)(C(=O)NCc3cc(F)cc(C(F)(F)F)c3)C2)CC[C@]12C=Cc1ccccc12`
Marked response: 8.40

Exam item: Please give measured pIC50 of the following entry: `CC(C)C[C@]1(C(=O)NCc2cc(C(F)(F)F)cc(C(F)(F)F)c2)CC[C@@H](N2CC[C@]3(C=Cc4ccccc43)[C@@H](C)C2)C1`
Marked response: 8.10

Exam item: Please give measured pIC50 of the following entry: C[C@H]1CN(C2CCC(CC3CCC3)(C(=O)NCc3cc(F)cc(C(F)(F)F)c3)C2)CC[C@]12C=Cc1ccccc12 (single isomer, unassigned; diastereomer 3)
Marked response: 6.87

Exam item: Please give measured pIC50 of the following entry: `C[C@H]1CN([C@@H]2CC[C@H](C(=O)NCc3cc(C(F)(F)F)cc(C(F)(F)F)c3)C2)CC[C@]12C=Cc1ccccc12`
Marked response: 7.70

Exam item: Please give measured pIC50 of the following entry: COCC1(C(=O)NCc2cc(C(F)(F)F)cc(C(F)(F)F)c2)CCC(N2CC[C@]3(C=Cc4ccccc43)[C@@H](C)C2)C1 (some centres undefined)
Marked response: 7.81

Exam item: Please give measured pIC50 of the following entry: `CS[C@]1(C(=O)NCc2cc(F)cc(C(F)(F)F)c2)CC[C@@H](N2CC[C@]3(C=Cc4ccccc43)[C@@H](C)C2)C1`
Marked response: 7.17

Exam item: Please give measured pIC50 of the following entry: C[C@H]1CN(C2CCC(CC3CC3)(C(=O)NCc3cc(C(F)(F)F)cc(C(F)(F)F)c3)C2)CC[C@]12C=Cc1ccccc12 (some centres undefined)
Marked response: 7.70

Exam item: Please give measured pIC50 of the following entry: C[C@H]1CN(C2CCC(CC3CCC3)(C(=O)NCc3cc(F)cc(C(F)(F)F)c3)C2)CC[C@]12C=Cc1ccccc12 (some centres undefined)
Marked response: 8.20

Exam item: Please give measured pIC50 of the following entry: CCC1(C(=O)NCc2cc(F)cc(C(F)(F)F)c2)CCC(N2CC[C@]3(C=Cc4ccccc43)[C@@H](C)C2)C1 (some centres undefined)
Marked response: 8.48

Exam item: Please give measured pIC50 of the following entry: `CC(C)[C@]1(C(=O)NCc2cc(F)cc(C(F)(F)F)c2)CC[C@@H](N2CC[C@]3(C=Cc4ccccc43)[C@@H](C)C2)C1`
Marked response: 8.51

Exam item: Please give measured pIC50 of the following entry: `CSC[C@]1(C(=O)NCc2cc(F)cc(C(F)(F)F)c2)CC[C@@H](N2CC[C@]3(C=Cc4ccccc43)[C@@H](C)C2)C1`
Marked response: 8.46

Exam item: Please give measured pIC50 of the following entry: CCC1(C(=O)NCc2cc(C(F)(F)F)cc(C(F)(F)F)c2)CCC(N2CC[C@]3(C=Cc4ccccc43)[C@@H](C)C2)C1 (some centres undefined)
Marked response: 8.00
